Molecular target: T1, recombinant human heparanase (active, 8 and 50 kDa sub-units, from baculovirus-infected Hi5 cells) (human, UniProt Q9Y251 36-109; Q9Y251 158-543)
T1 sequence (looked up) 1: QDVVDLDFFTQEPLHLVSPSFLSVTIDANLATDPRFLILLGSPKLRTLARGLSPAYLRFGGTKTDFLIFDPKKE
T1 sequence (looked up) 2: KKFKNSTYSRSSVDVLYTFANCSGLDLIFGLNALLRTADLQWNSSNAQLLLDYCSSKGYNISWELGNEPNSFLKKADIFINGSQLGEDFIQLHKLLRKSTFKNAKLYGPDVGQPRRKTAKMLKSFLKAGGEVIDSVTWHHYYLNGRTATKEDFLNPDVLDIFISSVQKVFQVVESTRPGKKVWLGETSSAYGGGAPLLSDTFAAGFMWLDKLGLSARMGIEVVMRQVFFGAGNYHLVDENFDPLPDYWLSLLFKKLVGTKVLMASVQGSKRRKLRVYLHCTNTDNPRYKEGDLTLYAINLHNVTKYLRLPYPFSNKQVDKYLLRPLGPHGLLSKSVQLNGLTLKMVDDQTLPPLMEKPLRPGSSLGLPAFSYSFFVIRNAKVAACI
Test: cell-based or functional assay
Overview of recorded Inhibition of recombinant human heparanase %, Assay 1 for various binders
Please give a number only; it is taken to be in %.

Binder	Experimental Value
monoclonal antibody 14H12.3 (antibody, V domains shown, Fully human (XenoMouse) antibody) VH: QVQLVESGGGVVQPGRSLRLSCAASGFTFSSYGMHWVRQAPGKGLEWVAVIWYDGSNKDYADSVKGRFTISRDNSKNTLYLQMNSLRAEDTAVYYCAREGSTSWTDYYGMDVWGQGTTVTVSS VL: SYELTQPPSVSVSPGQTARITCSGDALPKRYAYWYQQKSGQALVLVIYEDSKRPSGIPERFSGSSSGTMATLTISGAQVEDEADYYCYSIDSSGNHGVFGGGTKLTVL	58

Please look at the following binder next.
Which value of Inhibition of recombinant human heparanase %, Assay 1 has been reported for monoclonal antibody 16E1.1 (antibody, V domains shown, Fully human (XenoMouse) antibody) VH: QVQLQESGPGLVKPSQTLSLTCTVSGGSISSGGYYWSWIRQHPGKGLEWIGFIYYSGSTFYNPSLKSRITISVDTSKNQFSLKLSSVTAADTAVYYCARPYSSSWYGAFDIWGQGTMVTVSS VL: SYELTQPPSVSVSPGRTASITCSEDKLGNKYAYWYQQKPGQSPVLVIYQDSERPSGIPERFSGSNSGNTATLTISGTQAMDEADYYCQAWDSSTVVFGGGTKLTVL in the records?
40
